We begin with a simple list: items and their reported % Inh NPY5r 3 μM.
Target: human neuropeptide Y5 receptor (Homo sapiens, UniProt Q15761)
Construct: expressed in transfected cells; host or cells: HEK-293 (human embryonic kidney cells), stably transfected, G-418 selected; membranes
Sequence (Q15761 1-445): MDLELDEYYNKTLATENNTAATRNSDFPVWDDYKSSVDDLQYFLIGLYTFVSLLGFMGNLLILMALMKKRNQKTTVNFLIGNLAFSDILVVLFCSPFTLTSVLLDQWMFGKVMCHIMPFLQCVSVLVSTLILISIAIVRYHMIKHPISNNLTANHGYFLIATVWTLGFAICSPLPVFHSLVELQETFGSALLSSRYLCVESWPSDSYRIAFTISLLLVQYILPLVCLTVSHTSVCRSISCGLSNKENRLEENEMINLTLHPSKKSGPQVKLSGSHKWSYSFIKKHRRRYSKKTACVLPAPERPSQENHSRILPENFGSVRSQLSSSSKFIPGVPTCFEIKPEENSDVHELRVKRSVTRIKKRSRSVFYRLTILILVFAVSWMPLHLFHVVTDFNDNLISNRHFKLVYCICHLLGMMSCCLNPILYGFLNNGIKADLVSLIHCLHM
Assay: NPY5 HTS centrifugation assay: competition with 125I-PYY for binding to membranes of NPY5-transfected HEK-293 cells
Settings: 3 μM compound; % inhibition of 125I-PYY binding
Give the number; % is assumed, so skip it.

Completed entries (count: 6):
COc1ccc(OC)c(NC(=O)c2cc(C)n(-c3cccc(C(F)(F)F)c3)n2)c1: 37
Cc1cc(C(=O)Nc2ccccc2)nn1-c1cc(C(F)(F)F)ccc1Cl: 20
Cc1cc(C(=O)Nc2ccccc2-n2cccc2)nn1-c1cccc(F)c1: 42
COc1cccc(-n2nc(C(=O)Nc3cccc4cnccc34)cc2C)c1: 82
Cc1cc(C(=O)Nc2cc(Cl)cc(Cl)c2)nn1-c1cccc(Cl)c1: 7
Cc1cc(C(=O)Nc2ccccc2-n2cccc2)nn1Cc1ccccc1: 17

Next:
Ask: # get_value(readout='% Inh NPY5r 3 μM', item= Cc1cc(C(=O)Nc2cccc(OCc3ccccc3)c2)nn1-c1cccc(C(F)(F)F)c1 )
Reply: 35
